Taken from paper PMC10856758.

Recorded CC50 at 72 h values for a group of molecules are listed next.
# measurement_protocol: MTT cytotoxicity/antiproliferative assay
# run_conditions: human, HeLa cells, HeLa CC50, 72 h of treatment, MTT assay
endpoint_label: CC50 at 72 h (µM)

>  <molecule>
COc1cc([C@@H]2c3cc4c(cc3[C@@H](O[C@@H]3O[C@@H]5CO[C@@H](C)O[C@H]5[C@H](O)[C@H]3O)[C@H]3COC(=O)[C@H]23)OCO4)cc(OC)c1O [Etoposide]

>  <endpoint_label>
CC50 at 72 h

>  <quantitative_readout>
6.2

$$$$
>  <molecule>
CC[C@@]1(O)C(=O)OCc2c1cc1n(c2=O)Cc2cc3c(CN(C)C)c(O)ccc3nc2-1

>  <endpoint_label>
CC50 at 72 h

>  <quantitative_readout>
0.9

$$$$
